This collection of values is drawn from patent US8822517B2.

Test system: sigma σ receptor
Assay: Binding assay σ (non-selective), [3H]DTG, rat cerebral cortex
Details: percent inhibition of control specific binding; compounds tested at 1×10^−6 M
Description: The specific ligand binding to the receptors is defined as the difference between the total binding and the nonspecific binding determined in the presence of an excess of so unlabelled ligand. The specific Ligand binding to the receptor is defined as the difference between total and non-specific binding determined in the presence of an excess of unlabelled ligand. The compounds were tested at a concentration of 1×10^−6 M, and scintillation counting was the method of detection of ligand binding.
quantityName: σ [%] (%)
Give the number; % is assumed, so skip it.

- substanceSmiles: "CC(C)(C)c1ccc(S(=O)(=O)NCCCN2CCN(c3nsc4ccccc34)CC2)cc1"
  σ [%], %: 41
- substanceSmiles: "O=S(=O)(NCCCCN1CCN(c2nsc3ccccc23)CC1)c1cccc2scnc12"
  σ [%], %: 29
- substanceSmiles: "Cc1c(S(=O)(=O)NCCCCN2CCC(c3noc4cc(F)ccc34)CC2)sc2ccc(Cl)cc12"
  σ [%], %: 72
- substanceSmiles: "O=S(=O)(NCCCCN1CCN(c2cccc3[nH]ccc23)CC1)c1cnc2ccccn12"
  σ [%], %: 42
- substanceSmiles: "Cc1cccc(S(=O)(=O)NCCCCN2CCN(c3noc4ccccc34)CC2)c1"
  σ [%], %: 47

Query :: Enter recorded σ [%] with sigma σ receptor for O=S(=O)(NCCCCN1CCN(c2cccc3[nH]ccc23)CC1)c1ccccc1 here.
Result :: 78

Query :: Look up and report σ [%], with sigma σ receptor as system, for O=S(=O)(NCCCN1CCN(c2nsc3ccccc23)CC1)c1cccc2scnc12
Result :: 50

Query :: State σ [%] (sigma σ receptor) of O=S(=O)(NCCCCN1CCN(c2cccc3[nH]ccc23)CC1)c1ccc2ccccc2c1 .
Result :: 99

---

Biological target: serotoninergic 5-HT6 receptor (Homo sapiens)
Sequence (P50406 whole entry): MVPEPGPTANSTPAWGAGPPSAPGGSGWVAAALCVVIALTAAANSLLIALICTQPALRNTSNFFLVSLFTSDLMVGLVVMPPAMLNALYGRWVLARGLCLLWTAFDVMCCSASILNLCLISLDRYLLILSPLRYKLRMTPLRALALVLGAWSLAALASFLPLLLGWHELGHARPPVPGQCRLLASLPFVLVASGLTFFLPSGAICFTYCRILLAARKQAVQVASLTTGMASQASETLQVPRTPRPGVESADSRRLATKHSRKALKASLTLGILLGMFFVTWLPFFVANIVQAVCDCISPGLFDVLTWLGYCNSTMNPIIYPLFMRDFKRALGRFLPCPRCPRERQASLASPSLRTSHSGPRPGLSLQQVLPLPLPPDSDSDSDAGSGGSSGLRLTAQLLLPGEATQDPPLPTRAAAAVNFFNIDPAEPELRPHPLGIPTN
Test: Cellular functional assay, serotoninergic 5-HT6 receptor (agonism/antagonism)
Format: cell-based
Conditions: read-out: 5-HT6-antag. [%]
Description: The compounds were tested at the concentration of 1×10^−6M. In the Tables ag refers to agonism, and antag to antagonism).
quantityName: inhibition at 1 µM (%)
API: value field is a number in %; no unit string.

Query :: Fill in reported inhibition at 1 µM for this entry: Cc1cccc(S(=O)(=O)NCCN2CCN(c3nsc4ccccc34)CC2)c1
Result :: -10

Query :: Return value of inhibition at 1 µM for input Cc1c(S(=O)(=O)NCCCCN2CCN(c3nsc4ccccc34)CC2)sc2ccc(F)cc12 , no commentary.
Result :: 81

Query :: Report inhibition at 1 µM, nothing else, for this compound: O=S(=O)(NCCCCN1CCN(c2nsc3ccccc23)CC1)c1csc2ccccc12
Result :: 71

Query :: Give a short answer stating reported inhibition at 1 µM for O=S(=O)(NCCCCN1CCC(c2noc3cc(F)ccc23)CC1)c1cccc2ccccc12 .
Result :: 69

Query :: Quick one: give measured inhibition at 1 µM for O=S(=O)(NCCCN1CCN(c2nsc3ccccc23)CC1)c1ccc2ccccc2c1
Result :: 26

Query :: Quick one: give measured inhibition at 1 µM for O=c1[nH]c2ccc(S(=O)(=O)NCCCCN3CCN(c4noc5ccccc45)CC3)cc2o1
Result :: 50

Query :: For the compound O=S(=O)(NCCCCN1CCN(c2noc3ccccc23)CC1)c1cccc2ccccc12 , give its reported inhibition at 1 µM.
Result :: 56

Query :: Determine its reported inhibition at 1 µM: O=S(=O)(NCCCN1CCC(c2noc3cc(F)ccc23)CC1)c1ccc2ccccc2c1
Result :: 39
